Assay: Metabolic stability in dog liver microsomes
Assay type: in vitro ADME, Beagle Dog
Details: dog liver microsomes
REPORTED ENDPOINT: metabolic stability in liver microsomes of dog (in words)

query: Sample Cn1cc(-c2cccc(NC(=O)c3cc4oc(N5CCOCC5)nc4nc3N3CC[C@@H](O)C3)n2)cn1 [Compound A1] — what was its metabolic stability in liver microsomes of dog (in words)?
result: good metabolic stability

query: Ok, now Cn1cc(-c2cccc(NC(=O)c3cc4oc(N5CCOCC5)nc4nc3N3CCC(O)CC3)n2)cn1 [Compound A4]
result: good metabolic stability

query: Ok, now Cn1cc(-c2cccc(NC(=O)c3cc4c(nc3N3CCC(O)CC3)OC(C)(C)C4)n2)cn1 [Compound B5]
result: good metabolic stability

----------
Molecular target: IRAK4 (Homo sapiens (Human), UniProt Q9NWZ3)
Sequence (Q9NWZ3 whole entry): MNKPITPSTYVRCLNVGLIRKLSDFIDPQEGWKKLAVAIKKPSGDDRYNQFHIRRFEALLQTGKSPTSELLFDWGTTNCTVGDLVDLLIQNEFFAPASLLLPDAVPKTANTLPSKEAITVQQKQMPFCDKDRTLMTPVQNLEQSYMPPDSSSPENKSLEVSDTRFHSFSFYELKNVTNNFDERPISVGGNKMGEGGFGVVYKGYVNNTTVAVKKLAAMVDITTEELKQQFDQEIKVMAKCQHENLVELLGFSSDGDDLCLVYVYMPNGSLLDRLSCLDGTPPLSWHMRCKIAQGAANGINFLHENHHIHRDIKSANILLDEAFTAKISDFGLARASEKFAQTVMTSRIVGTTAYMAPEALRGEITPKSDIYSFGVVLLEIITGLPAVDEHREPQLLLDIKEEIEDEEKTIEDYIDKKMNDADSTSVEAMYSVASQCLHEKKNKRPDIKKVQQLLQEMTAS
Assay: Screening the compounds against IRAK4 with ATP (Caliper, FAM-labeled peptide)
Assay type: biochemical
Conditions: IRAK4 kinase inhibition relative to CA4948
Protocol: Prepare Ix kinase base buffer and stop buffer for testing kinases: (1) base buffer: 50 mM HEPES (pH 7.5), 0.0015% Brij-35; (2) stop buffer: 100 mM HEPES (pH 7.5), 0.015% Brij-35, 0.2% Coating Reagent #3, 50 mM EDTA. Then prepare compounds for testing: Dilute the compound to 50× of the final desired highest inhibitor concentration in reaction by 100% DMSO. Transfer 100 μL of this compound dilution to a well in a 96-well plate (source plate). […]
REPORTED ENDPOINT: activity, times better than that of the positive control compound CA4948

See these solved cases before continuing.
query: Sample Cn1cc(-c2cccc(NC(=O)c3cc4c(nc3OC3CC3)OC(C)(C)C4)n2)cn1 — what was its activity, times better than that of the positive control compound CA4948?
result: more than 10 times

query: Ok, now Cn1cc(-c2cccc(NC(=O)c3cc4oc(N5CCOCC5)nc4nc3N3CCC(F)(F)CC3)n2)cn1
result: more than 5 times

query: Ok, now Cl.Cn1cc(-c2cccc(NC(=O)c3cc4oc(N5CCOCC5)nc4nc3N3CCN(CCO)CC3)n2)cn1
result: more than 5 times

query: Ok, now Cl.Cn1cc(-c2cccc(NC(=O)c3cc4oc(N5CCOCC5)nc4nc3N3CCN(C4CC4)CC3)n2)cn1
result: more than 10 times

query: Ok, now COC1CCN(c2nc3nc(N4CCOCC4)oc3cc2C(=O)Nc2cccc(-c3cnn(C)c3)n2)CC1
result: more than 25 times

Continuing:
query: Sample Cn1cc(-c2cccc(NC(=O)c3cc4oc(N5CCOCC5)nc4nc3N3CCC4(CCO4)CC3)n2)cn1 — what was its activity, times better than that of the positive control compound CA4948?
result: more than 25 times

query: Ok, now Cn1cc(-c2cccc(NC(=O)c3cc4c(nc3O[C@@H]3CCOC3)OC(C)(C)C4)n2)cn1
result: more than 10 times

query: Ok, now COc1nc2nc(N3CCOCC3)oc2cc1C(=O)Nc1cccc(-c2cnn(C)c2)n1
result: more than 5 times

query: Ok, now Cn1cc(-c2cccc(NC(=O)c3cc4oc(N5CCOCC5)nc4nc3N3CCC(C)(O)CC3)n2)cn1
result: more than 10 times

query: Ok, now Cn1cc(-c2cccc(NC(=O)c3cc4oc(N5CCOCC5)nc4nc3N3CCC(O)CC3)n2)cn1
result: more than 10 times

query: Ok, now Cn1cc(-c2cccc(NC(=O)c3cc4c(nc3OC3CC(C)(O)C3)OC(C)(C)C4)n2)cn1 (stereo not drawn)
result: more than 10 times

query: Ok, now COC1CCN(c2nc3c(cc2C(=O)Nc2cccc(-c4cnn(C)c4)n2)CC(C)(C)O3)CC1
result: more than 25 times

----------
Assay: Pharmacokinetics study in ICR mice
Type: in vivo
Details: mouse, plasma, iv; male ICR mice, i.v.: 2 mg/kg
REPORTED ENDPOINT: half-life (h)

[I] Cn1cc(-c2cccc(NC(=O)c3cc4c(nc3N3CCC(O)CC3)OC(C)(C)C4)n2)cn1
[II] Cn1cc(-c2cccc(NC(=O)c3cc4oc(N5CCOCC5)nc4nc3N3CCC(O)CC3)n2)cn1
query: Hey, between I and II which has a smaller measured half-life? Reply with the label of the item you choose.
result: II

----------
Assay: Pharmacokinetics study in ICR mice
Assay type: in vivo
Settings: mouse, plasma, po; male ICR mice, p.o.: 10 mg/kg
REPORTED ENDPOINT: Tmax (h)

[1] Cn1cc(-c2cccc(NC(=O)c3cc4oc(N5CCOCC5)nc4nc3N3CCC(O)CC3)n2)cn1
[2] Cn1cc(-c2cccc(NC(=O)c3cc4c(nc3N3CCC(O)CC3)OC(C)(C)C4)n2)cn1
query: Could you please tell me which of these two has the higher Tmax: 1 or 2 ? Reply with the label of the item you choose.
result: 2

----------
Target: IRAK4 (Homo sapiens (Human), UniProt Q9NWZ3)
Assay: Screening the compounds against IRAK4 with ATP (Caliper, FAM-labeled peptide)
Format: biochemical
Conditions: read-out: IC50 (nM) (10 μM ATP); IRAK4 kinase, 10 μM ATP
Counter-ions that a name gives are not always drawn.
REPORTED ENDPOINT: IC50 (nM)

query: Sample CN1CCN(c2nc3nc(N4CCC(C)(O)CC4)c(C(=O)Nc4cccc(-c5cnn(C)c5)n4)cc3o2)CC1 — what was its IC50?
result: 6.6

[1] COCCN1CCN(c2nc3nc(N4CCOCC4)oc3cc2C(=O)Nc2cccc(-c3cnn(C)c3)n2)CC1 [Compound A34, Hydrochloride]
[2] Cn1cc(-c2cccc(NC(=O)c3cc4oc(N5CCOCC5)nc4nc3N3CC4(CCOC4)C3)n2)cn1
[3] CC1(C)Cc2cc(C(=O)Nc3cccn([C@H]4C[C@H]4F)c3=O)c(N3CCC(O)CC3)nc2O1
[4] Cn1cc(-c2cccc(NC(=O)c3cc4oc(N5CCOCC5)nc4nc3N3CC(O)(C4CC4)C3)n2)cn1
[5] CCOc1nc2c(cc1C(=O)Nc1cccc(-c3cnn(C)c3)n1)CC(C)(C)O2
query: Endpoint returns the given molecules ordered by ascending IC50. Ranked list of labels, please, in the requested order.
result: 5, 1, 3, 4, 2
(5: 9.2 nM, 1: 40 nM, 3: 69 nM, 4: 122 nM, 2: 221 nM)

----------
# maps each entry to its half-life
Experiment: Metabolic stability in human liver microsomes
Type: in vitro ADME
Conditions: NADPH, 37° C., read-out: Human microsome (t1/2)

See these solved cases before continuing.
query: Sample Cn1cc(-c2cccc(NC(=O)c3cc4oc(N5CCOCC5)nc4nc3N3CCC(O)CC3)n2)cn1 — what was its half-life?
result: > 2.42 h

query: Ok, now COC1CCN(c2nc3nc(N4CCOCC4)oc3cc2C(=O)Nc2cccc(-c3cnn(C)c3)n2)CC1
result: 1.95 h

query: Ok, now Cn1cc(-c2cccc(NC(=O)c3cc4oc(N5CCOCC5)nc4nc3N3CC[C@@H](O)C3)n2)cn1
result: > 2.42 h

Now, please, on to the next compound.
query: Sample Cn1cc(-c2cccc(NC(=O)c3cc4c(nc3N3CCC(O)CC3)OC(C)(C)C4)n2)cn1 — what was its half-life?
result: > 2.42 h

----------
Test: Pharmacokinetics study in ICR mice
Type: in vivo
Details: mouse, plasma, po; male ICR mice, p.o.: 10 mg/kg, zero to 24 hours
REPORTED ENDPOINT: AUC (ng·h/mL)

[1] Cn1cc(-c2cccc(NC(=O)c3cc4c(nc3N3CCC(O)CC3)OC(C)(C)C4)n2)cn1
[2] Cn1cc(-c2cccc(NC(=O)c3cc4oc(N5CCOCC5)nc4nc3N3CCC(O)CC3)n2)cn1
query: Could you please tell me which of these two has the higher AUC: 1 or 2 ? Reply with the label of the item you choose.
result: 2
(2: 26400 ng·h/mL, 1: 9990 ng·h/mL)

----------
Biological target: IRAK4 (Homo sapiens (Human))
Assay: Screening the compounds against IRAK4 with ATP (Caliper, FAM-labeled peptide)
Format: biochemical
Conditions: read-out: IC50 (nM) (10 μM ATP); IRAK4 kinase, 10 μM ATP
Counter-ions that a name gives are not always drawn.
REPORTED ENDPOINT: IC50 (nM)

See these solved cases before continuing.
query: Sample Cn1cc(-c2cccc(NC(=O)c3cc4c(nc3N3CCC(O)CC3)OC(C)(C)C4)n2)cn1 — what was its IC50?
result: 7.6

query: Ok, now Cn1cc(-c2cccc(NC(=O)c3cc4c(nc3OC3CCC3)OC(C)(C)C4)n2)cn1
result: 6.1

query: Ok, now Cn1cc(-c2cccc(NC(=O)c3cc4oc(N5CCOCC5)nc4nc3N3CCN4CCC[C@@H]4C3)n2)cn1
result: 26

query: Ok, now Cn1cc(-c2cccc(NC(=O)c3cc4oc(N5CCOCC5)nc4nc3N3CCC(F)(F)CC3)n2)cn1
result: 22

query: Ok, now Cn1cc(-c2cccc(NC(=O)c3cc4c(nc3N3CCN(C5CC5)CC3)OC(C)(C)C4)n2)cn1
result: 7.5

[P] Cn1cc(-c2cccc(NC(=O)c3cc4c(nc3OCC3CC3)OC(C)(C)C4)n2)cn1
[Q] CC1CN(c2nc3nc(N4CCOCC4)oc3cc2C(=O)Nc2cccc(-c3cnn(C)c3)n2)CCN1C (stereo not shown) [Compound A30, Hydrochloride]
query: Hey, between P and Q which has a smaller measured IC50? Reply with the label of the item you choose.
result: P
(P: 11 nM, Q: 125 nM)
